Collected IC50 for Adenosine receptor A2a (Homo sapiens) across several studies; molecules listed below.

Completed entries (count: 6):
Cc1nc2c(nc(-c3ccc(C)o3)n3nc(C(C)C)nc23)[nH]1: < 10 nM
CC(NC(=O)c1nc(-c2ccc3ncccc3c2)c(-c2ccn(C)n2)nc1N)c1ncccn1 (stereo not drawn): 7.3 nM
Cc1nc2c(Cl)c(NC(=O)C3CC3)nc(-c3ccc(C)o3)n2n1: < 10 nM
Cc1nc2c(Cl)c(N)nc(-c3ccccc3)n2n1: < 10 nM
Cc1cn2c(Cl)c(N)nc(-c3ccc(F)cc3)c2n1: 100 to 1000 nM
CC(C)c1nc2c(Cl)c(N)nc(-c3ccccc3)n2n1: < 10 nM

Return reported IC50; argument: Cc1cn2c(Cl)c(N)nc(-c3ccccc3C)c2n1 > 1000 nM

Return reported IC50; argument: C[C@H](NC(=O)c1nc(-c2cc(Cl)c3ncccc3c2)c(-c2ccccc2)nc1N)c1cccc(C#N)n1 < 0.6 nM

Return reported IC50; argument: Cc1ccc(-c2nc(N)c(Cl)n3cc(C)nc23)cc1 100 to 1000 nM

Return reported IC50; argument: Cc1nc2nc(N[C@@H](C)c3cncc(F)c3)nc(C(=O)N3CC(C(N)=O)C3)c2s1 > 1000 nM

Return reported IC50; argument: CC(=O)Nc1cc2nc(C)nn2c(-c2ccc(S(=O)(=O)N(C)C)cc2)n1 > 1000 nM

Return reported IC50; argument: Cc1nc2nc(N[C@@H](C)c3cncc(F)c3)nc(C(=O)NCCc3ccc(O)cc3)c2s1 > 1000 nM

Return reported IC50; argument: Cc1nc2cc(N)nc(-c3ccc(S(=O)(=O)N(C)C)cc3)n2n1 > 1000 nM

Return reported IC50; argument: Cc1nc2nc(N[C@@H](C)c3cncc(F)c3)nc(C(=O)NCCN3CCOCC3)c2s1 > 1000 nM
